assay: Selectivity ratio, ratio of Ke value of Kappa to Delta opioid receptor
endpoint: Ratio
In your answer, state the number alone without any accompanying words.

Consider the worked cases shown below.
(Q) Please report the measured Ratio for N=C(N)/N=C(\N)Nc1ccc2[nH]c3c(c2c1)C[C@@]1(O)C2Cc4ccc(O)c5c4[C@@]1(CCN2CC1CC1)[C@H]3O5
(A) 512

(Q) Please report the measured Ratio for CC(=N)NCc1ccc2[nH]c3c(c2c1)C[C@@]1(O)C2Cc4ccc(O)c5c4[C@@]1(CCN2CC1CC1)[C@H]3O5
(A) 17.3

(Q) Please report the measured Ratio for CC(=N)Nc1ccc2[nH]c3c(c2c1)C[C@@]1(O)C2Cc4ccc(O)c5c4[C@@]1(CCN2CC1CC1)[C@H]3O5
(A) 52

# context switch: different molecule, same Ratio
(Q) Please report the measured Ratio for C[N+](C)(C)Cc1ccc2[nH]c3c(c2c1)C[C@@]1(O)C2Cc4ccc(O)c5c4[C@@]1(CCN2CC1CC1)[C@H]3O5
(A) 154
